tested-on: VMAT2 (Mus musculus)
method-notes: FFN206 uptake inhibition assay (30-min treatment) in HEK-VMAT2 cells
assay-setup: 30 min inhibition curve fit

compound | Hill Slope (inhibition)
CC(CN(C)C)CN1c2ccccc2CCc2ccccc21 (centres unmarked) | –1.173
CN(C)CCC=C1c2ccccc2CCc2ccccc21 | –1.173

* * *

tested-on: UniProt:Q8BRU6
method-notes: FFN206 uptake inhibition assay (30-min treatment) in HEK-VMAT2 cells
assay-setup: VMAT2 activity at 100 μM compound, 30 min, normalized to vehicle (100%)
experimental-endpoint: Imax, % vehicle (mean ± SEM) (% vehicle)
Respond with the bare value in % vehicle.

Some entries whose results are on file:
compound | numeric-result
CN1CCN2c3ncccc3Cc3ccccc3C2C1 (stereo not shown) | 63.27
CC(CN(C)C)CN1c2ccccc2CCc2ccccc21 (stereo not shown) | 5.87
CN(C)CCC=C1c2ccccc2CCc2ccccc21 | 8.47

Problem: Find Imax, % vehicle (mean ± SEM) for COc1cc2c(cc1OC)C1CC(=O)C(CC(C)C)CN1CC2 (stereo not shown) on UniProt:Q8BRU6 and write it down.
Solution: 9.51

Problem: Report measured Imax, % vehicle (mean ± SEM) on UniProt:Q8BRU6; entry: CNCCCN1c2ccccc2CCc2ccccc21
Solution: 7.51

Problem: Provide Imax, % vehicle (mean ± SEM), recorded with UniProt:Q8BRU6, of CNCCCC1c2ccccc2C=Cc2ccccc21
Solution: 2.93

Problem: Answer briefly: Imax, % vehicle (mean ± SEM) recorded on UniProt:Q8BRU6 for CNCCC=C1c2ccccc2CCc2ccccc21
Solution: 8.73

* * *

tested-on: VMAT2 (Mus musculus, UniProt Q8BRU6)
method-notes: FFN206 uptake inhibition assay (30-min treatment) in HEK-VMAT2 cells
pIC50: −log10 of the molar value.
Classify by measured pIC50: T if it is equal to or exceeds 5, F if it is smaller.

Examples from the recorded data:
molecule | cat
COc1cc2c(cc1OC)C1CC(=O)C(CC(C)C)CN1CC2 (centres unmarked) | T
CNCCCN1c2ccccc2CCc2ccccc21 | F
CNCCCC1c2ccccc2C=Cc2ccccc21 | T
CN1CCN2c3ncccc3Cc3ccccc3C2C1 (centres unmarked) | F

Let us examine a further case.
Problem: Does the reported pIC50 for CN(C)CCCN1c2ccccc2CCc2ccccc21 fall at or above the 5 mark?
Solution: F

* * *

tested-on: VMAT2 (Mus musculus)
method-notes: FFN206 uptake upregulation assay (18-h treatment, washout) in HEK-VMAT2 cells
Format: cell-based
Set-up: The full-length mouse and human SLC18A2 cDNAs encoding VMAT2 were cloned into pcDNA3.1 vectors; expressed in transfected cells
assay-setup: 18 h treatment; concentration giving Emax
experimental-endpoint: Emax concentration
Kindly report the value followed by its unit.

Use these answered entries as a reference point.
compound | result
CNCCCN1c2ccccc2CCc2ccccc21 [DES, Desipramine] | 56.23 µM
CC(CN(C)C)CN1c2ccccc2CCc2ccccc21 (stereo not drawn) [TRI, Trimipramine] | 100 µM
CN(C)CCC=C1c2ccccc2CCc2ccccc21 [AMI, Amitriptyline] | 31.62 µM
CNCCCC1c2ccccc2C=Cc2ccccc21 [PRO, Protriptyline] | 31.62 µM
CNCCC=C1c2ccccc2CCc2ccccc21 [NOR, Nortriptyline] | 31.62 µM

Moving on to another compound below.
Problem: Identify the reported Emax concentration for the following entry. CN1CCN2c3ncccc3Cc3ccccc3C2C1 (stereo not drawn) [MIR, mirtazapine]
Solution: 100 µM

* * *

Readings of pEC50 for the listed molecules
tested-on: VMAT2 (Mus musculus, UniProt Q8BRU6)
method-notes: FFN206 uptake upregulation assay (18-h treatment, washout) in HEK-VMAT2 cells
assay-setup: 18 h treatment followed by washout, HEK-VMAT2 cells; read-out: EC50 (95% CI), VMAT2 upregulation
Entry type: numeric. Quantity: pEC50, the -log10 of concentration in molar units.

molecule | pEC50
CN1CCN2c3ncccc3Cc3ccccc3C2C1 (stereo not shown) | 4.45

Problem: Write down pEC50 measured for item CNCCCN1c2ccccc2CCc2ccccc21
Solution: 4.77

Problem: Report measured pEC50; entry is CN(C)CCCN1c2ccccc2CCc2ccccc21
Solution: 4.52

Problem: Annotate the molecule CC(CN(C)C)CN1c2ccccc2CCc2ccccc21 (stereo not shown) with its measured pEC50.
Solution: 4.51

* * *

tested-on: VMAT2 (Mus musculus)
method-notes: FFN206 uptake upregulation assay (18-h treatment, washout) in HEK-VMAT2 cells
Format: cell-based
Set-up: The full-length mouse and human SLC18A2 cDNAs encoding VMAT2 were cloned into pcDNA3.1 vectors; expressed in transfected cells
assay-setup: 18 h treatment followed by washout, at Emax concentration
Listed next: entries and their corresponding Emax, % vehicle (mean ± SEM).
Numeric only. Scale: % vehicle

Recorded results for 5 compounds are shown here.
compound | tested-on | Emax, % vehicle (mean ± SEM) (% vehicle)
CN(C)CCCN1c2ccccc2CCc2ccccc21 | VMAT2 (Mus musculus) | 245.36
CNCCCC1c2ccccc2C=Cc2ccccc21 | VMAT2 (Mus musculus) | 223.92
CNCCCN1c2ccccc2CCc2ccccc21 | VMAT2 (Mus musculus) | 177.59
CN1CCN2c3ncccc3Cc3ccccc3C2C1 (stereo not shown) | VMAT2 (Mus musculus) | 175.11
CC(CN(C)C)CN1c2ccccc2CCc2ccccc21 (stereo not shown) | VMAT2 (Mus musculus) | 194.63

Problem: State, in one line, measured Emax, % vehicle (mean ± SEM) of CNCCC=C1c2ccccc2CCc2ccccc21
Solution: 207.90

Problem: Output measured Emax, % vehicle (mean ± SEM) for this item: CN(C)CCC=C1c2ccccc2CCc2ccccc21
Solution: 237.26

* * *

tested-on: UniProtKB Q8BRU6
method-notes: FFN206 uptake upregulation assay (18-h treatment, washout) in HEK-VMAT2 cells
Format: cell-based
Set-up: The full-length mouse and human SLC18A2 cDNAs encoding VMAT2 were cloned into pcDNA3.1 vectors; expressed in transfected cells
assay-setup: 18 h upregulation curve fit
Hill slope (upregulation) values, listed per item

compound | Hill slope (upregulation)
CN1CCN2c3ncccc3Cc3ccccc3C2C1 (stereo not shown) [MIR, mirtazapine] | 2.486
CNCCCC1c2ccccc2C=Cc2ccccc21 [PRO, Protriptyline] | 0.777
CNCCC=C1c2ccccc2CCc2ccccc21 [NOR, Nortriptyline] | 0.915

Then there is this compound:
Problem: Please report the measured Hill slope (upregulation) for CC(CN(C)C)CN1c2ccccc2CCc2ccccc21 (stereo not shown) [TRI, Trimipramine]
Solution: 1.939

* * *

tested-on: VMAT2 (Mus musculus)
method-notes: FFN206 uptake inhibition assay (30-min treatment) in HEK-VMAT2 cells
Some compounds, each annotated with its measured pIC50.
Schema: pIC50 number; meaning minus log10 of the concentration expressed in molar units.

Consider the reported pIC50 for these compounds:
compound | pIC50
CN(C)CCC=C1c2ccccc2CCc2ccccc21 | 4.91
CC(CN(C)C)CN1c2ccccc2CCc2ccccc21 (stereo not drawn) | 4.88

// switching to the query compound
Problem: Look up and state reported pIC50 for CNCCC=C1c2ccccc2CCc2ccccc21
Solution: 4.88

* * *

tested-on: VMAT2 (Mus musculus)
method-notes: FFN206 uptake upregulation assay (18-h treatment, washout) in HEK-VMAT2 cells
Format: cell-based
Parameters: The full-length mouse and human SLC18A2 cDNAs encoding VMAT2 were cloned into pcDNA3.1 vectors; expressed in transfected cells
assay-setup: 18 h upregulation curve fit
experimental-endpoint: Hill slope (upregulation)
Could you respond with only the numeric value?

smiles-data | numeric-result
CN(C)CCCN1c2ccccc2CCc2ccccc21 | 1.505

Problem: Name the recorded Hill slope (upregulation) of the compound listed here: CN(C)CCC=C1c2ccccc2CCc2ccccc21
Solution: 1.728

Problem: Tell me measured Hill slope (upregulation) for CNCCCN1c2ccccc2CCc2ccccc21 please.
Solution: 1.530
